# Test System: PRMT5/MEP50 (Homo sapiens, UniProt O14744)
# Sequence (O14744 whole entry): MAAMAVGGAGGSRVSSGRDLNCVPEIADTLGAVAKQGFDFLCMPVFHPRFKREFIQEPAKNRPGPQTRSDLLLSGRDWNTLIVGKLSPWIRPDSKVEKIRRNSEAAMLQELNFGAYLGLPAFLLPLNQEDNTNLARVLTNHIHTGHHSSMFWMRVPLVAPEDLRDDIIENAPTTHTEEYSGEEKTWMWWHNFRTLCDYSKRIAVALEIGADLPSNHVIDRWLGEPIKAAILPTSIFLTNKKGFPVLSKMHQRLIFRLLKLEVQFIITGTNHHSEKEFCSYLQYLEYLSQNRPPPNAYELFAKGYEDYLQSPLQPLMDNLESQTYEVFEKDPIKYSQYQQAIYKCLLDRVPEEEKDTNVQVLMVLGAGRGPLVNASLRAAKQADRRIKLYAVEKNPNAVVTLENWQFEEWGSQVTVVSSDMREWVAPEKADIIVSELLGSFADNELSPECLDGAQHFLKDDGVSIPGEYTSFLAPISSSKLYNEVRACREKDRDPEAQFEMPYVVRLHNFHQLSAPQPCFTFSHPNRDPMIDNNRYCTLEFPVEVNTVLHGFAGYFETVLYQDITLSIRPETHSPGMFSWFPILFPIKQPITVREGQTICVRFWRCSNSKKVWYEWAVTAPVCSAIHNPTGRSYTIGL
# Sequence (Q9BQA1 whole entry partner): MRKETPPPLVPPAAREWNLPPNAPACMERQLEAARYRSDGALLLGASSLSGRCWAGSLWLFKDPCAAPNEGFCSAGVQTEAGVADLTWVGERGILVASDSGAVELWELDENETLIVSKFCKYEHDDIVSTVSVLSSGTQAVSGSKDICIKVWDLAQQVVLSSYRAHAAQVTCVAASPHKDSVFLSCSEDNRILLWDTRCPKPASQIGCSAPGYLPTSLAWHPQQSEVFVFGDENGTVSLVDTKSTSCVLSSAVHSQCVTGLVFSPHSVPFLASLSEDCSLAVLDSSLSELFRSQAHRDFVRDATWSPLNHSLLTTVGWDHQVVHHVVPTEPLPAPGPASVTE
# Assay Explanation: MTase-Glo methyl transferase assay, Method A (Histone H4 peptide, 1 µM MTA, 24 h pre-incubation)
# Assay type: biochemical
# Parameters: made in house
# Reported Conditions: read-out: PRMT5 MTase Glo Ki (nM, Meth. A)
Readout: Ki (nM)

INSERT INTO measurements (molecule, reading) VALUES
  ('Cc1nc(CN(C(=O)c2cnc3nc(N)c(Br)cc3c2)[C@H](C)c2ncccn2)ccc1Br (single isomer, unassigned)', 0.09),
  ('C[C@H](c1ncccn1)N(Cc1ccc(C#N)cn1)C(=O)c1cnc2nc(N)c(Br)cc2c1', 0.47),
  ('N#Cc1ccc(CN(C(=O)c2cnc3nc(N)c(Br)cc3c2)[C@@H](c2ncccn2)C2CC2)nc1', 0.68);

[1] C#Cc1cc2cc(C(=O)N(Cc3ccc(C(F)(F)F)cn3)[C@H](C)c3ncccc3F)cnc2nc1N
[2] Cc1cc2cc(C(=O)N(Cc3ccc(C(F)F)cn3)CC(C)C)ccc2nc1N
[3] C[C@H](c1ccc(F)cc1F)N(Cc1ccc(C(F)(F)F)cn1)C(=O)c1cnc2nc(N)c(Br)cc2c1
[4] Cc1cc2cc(C(=O)N(Cc3ccc(Br)nn3)[C@H](C)c3ncn(C)n3)ccc2nc1N (single isomer, unassigned)
[5] Cc1cc2cc(C(=O)N(Cc3ccc(C(F)(F)F)cn3)[C@H](C)c3ncccn3)c(F)cc2nc1N
Asked: Task field, ranking: reported Ki, descending order. Answer by listing the labels in the requested order.
Given back: 2, 5, 1, 3, 4
